- measured-on: Polyunsaturated fatty acid 5-lipoxygenase (Homo sapiens)
- Sequence (P09917 whole entry): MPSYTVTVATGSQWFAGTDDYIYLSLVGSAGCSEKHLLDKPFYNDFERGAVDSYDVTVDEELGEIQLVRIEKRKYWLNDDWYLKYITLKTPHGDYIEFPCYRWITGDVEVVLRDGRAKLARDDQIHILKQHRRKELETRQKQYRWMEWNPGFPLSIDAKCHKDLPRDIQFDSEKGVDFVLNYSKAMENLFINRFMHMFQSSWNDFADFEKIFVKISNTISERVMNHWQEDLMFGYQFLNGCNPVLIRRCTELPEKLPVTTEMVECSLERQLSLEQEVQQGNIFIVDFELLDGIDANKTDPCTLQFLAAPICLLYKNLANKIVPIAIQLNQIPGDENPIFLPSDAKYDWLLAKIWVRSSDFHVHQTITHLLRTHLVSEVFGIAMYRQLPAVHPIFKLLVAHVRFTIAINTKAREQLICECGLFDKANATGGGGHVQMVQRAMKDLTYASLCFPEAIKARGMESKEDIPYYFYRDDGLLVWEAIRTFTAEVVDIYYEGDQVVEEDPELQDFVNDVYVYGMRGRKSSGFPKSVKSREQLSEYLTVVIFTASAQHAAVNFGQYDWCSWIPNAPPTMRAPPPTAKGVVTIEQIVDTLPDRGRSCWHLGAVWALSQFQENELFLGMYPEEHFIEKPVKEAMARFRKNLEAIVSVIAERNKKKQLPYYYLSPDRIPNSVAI
- protocol-text: Inhibition of human 5-LOX using arachidonic acid as substrate preincubated for 10 mins followed by substrate addition by H2DCFDA staining-based fluorometric analysis
IC50 by entry:
Enter your answer as a number in µM; do not include the unit.

# count of solved cases: 2
- O=C(Oc1cccc(-c2ccccc2)c1)c1cc([N+](=O)[O-])cc([N+](=O)[O-])c1: 8.7
- O=C(Oc1cccc2ccccc12)c1cccc([N+](=O)[O-])c1: 7.1

// below: IC50 requested for another compound
Under Polyunsaturated fatty acid 5-lipoxygenase (Homo sapiens): IC50 value of `Cc1cccc(OC(=O)c2cc([N+](=O)[O-])cc([N+](=O)[O-])c2)c1` ?
0.006

====

IC50 by entry:
- measured-on: Polyunsaturated fatty acid 5-lipoxygenase (Homo sapiens, UniProt P09917)
- Sequence (P09917 whole entry): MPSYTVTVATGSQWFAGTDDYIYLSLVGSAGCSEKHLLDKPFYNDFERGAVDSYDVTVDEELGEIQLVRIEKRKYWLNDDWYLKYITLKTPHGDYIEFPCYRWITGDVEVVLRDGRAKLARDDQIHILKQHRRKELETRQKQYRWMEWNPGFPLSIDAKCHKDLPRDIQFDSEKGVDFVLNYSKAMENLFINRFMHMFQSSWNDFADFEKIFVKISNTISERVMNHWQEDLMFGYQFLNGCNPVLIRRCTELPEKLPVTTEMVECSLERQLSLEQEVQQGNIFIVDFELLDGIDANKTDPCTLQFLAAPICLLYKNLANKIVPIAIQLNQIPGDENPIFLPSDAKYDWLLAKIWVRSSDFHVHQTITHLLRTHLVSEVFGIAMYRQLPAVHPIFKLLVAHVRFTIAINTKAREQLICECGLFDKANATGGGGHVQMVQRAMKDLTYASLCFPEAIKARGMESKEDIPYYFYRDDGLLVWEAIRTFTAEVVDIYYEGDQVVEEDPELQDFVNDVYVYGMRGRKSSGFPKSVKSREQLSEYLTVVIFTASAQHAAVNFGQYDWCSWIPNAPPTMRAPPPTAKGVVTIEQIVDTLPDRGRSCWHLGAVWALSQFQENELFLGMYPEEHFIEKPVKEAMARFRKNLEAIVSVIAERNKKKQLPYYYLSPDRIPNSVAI
- protocol-text: Inhibition of human 5-LOX using arachidonic acid as substrate preincubated for 10 mins followed by substrate addition by H2DCFDA staining-based fluorometric analysis
Enter your answer as a number in nM; do not include the unit.

# count of solved cases: 2
* O=C(Oc1cccc2ccccc12)c1cc([N+](=O)[O-])cc([N+](=O)[O-])c1 | 1000
* COc1ccc(NC(=O)c2cc([N+](=O)[O-])cc([N+](=O)[O-])c2)cc1 | 34

// below: IC50 requested for another molecule
I have this molecule here, `Cc1cccc(NC(=O)c2cc([N+](=O)[O-])cc([N+](=O)[O-])c2)c1` , and I need its recorded IC50.
10
